Target: SERCA2a (Canis lupus familiaris, UniProt O46674)
Construct: pre-incubated with 2 μg of microsomes; from tissue; host or cells: dog heart left ventricle, SR microsomes
Sequence (O46674 whole entry): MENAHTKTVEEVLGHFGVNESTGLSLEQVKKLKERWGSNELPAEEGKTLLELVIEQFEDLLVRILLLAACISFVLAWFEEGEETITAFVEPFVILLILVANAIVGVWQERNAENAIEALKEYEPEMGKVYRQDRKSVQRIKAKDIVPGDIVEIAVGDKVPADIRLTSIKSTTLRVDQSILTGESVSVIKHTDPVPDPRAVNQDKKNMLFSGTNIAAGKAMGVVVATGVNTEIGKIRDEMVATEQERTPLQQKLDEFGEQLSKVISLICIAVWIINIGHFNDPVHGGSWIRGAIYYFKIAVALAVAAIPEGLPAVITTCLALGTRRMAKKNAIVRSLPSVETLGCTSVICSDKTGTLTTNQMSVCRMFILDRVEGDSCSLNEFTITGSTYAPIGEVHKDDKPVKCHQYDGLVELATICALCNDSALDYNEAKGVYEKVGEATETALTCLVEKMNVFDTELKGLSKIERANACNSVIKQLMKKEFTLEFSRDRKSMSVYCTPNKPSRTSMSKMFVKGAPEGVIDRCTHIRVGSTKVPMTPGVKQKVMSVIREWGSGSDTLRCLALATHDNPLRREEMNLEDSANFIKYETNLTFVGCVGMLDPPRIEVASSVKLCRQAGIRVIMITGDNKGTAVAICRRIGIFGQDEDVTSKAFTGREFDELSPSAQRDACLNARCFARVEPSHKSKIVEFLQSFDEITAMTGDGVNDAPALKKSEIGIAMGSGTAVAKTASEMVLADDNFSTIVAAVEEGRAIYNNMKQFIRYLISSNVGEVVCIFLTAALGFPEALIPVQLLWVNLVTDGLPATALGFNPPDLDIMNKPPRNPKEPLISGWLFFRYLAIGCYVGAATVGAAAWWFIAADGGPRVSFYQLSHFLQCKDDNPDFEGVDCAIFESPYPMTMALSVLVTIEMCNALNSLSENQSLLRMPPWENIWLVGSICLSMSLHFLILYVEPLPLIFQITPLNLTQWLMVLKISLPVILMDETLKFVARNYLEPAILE
Experiment: SERCA2a ATPase activity in heart-derived SR microsomes from normal dog
Assay type: biochemical
Conditions: compound 1 nM
The following compounds are listed with their measured % increase vs Control (SERCA2a Vmax) values.
Response body: numeric value in %, unit text excluded.

Entry C[C@]12CC[C@H](O)C[C@H]1CCC1C2CC[C@]2(C)[C@@H](CCc3cc(CCCN)on3)CC[C@]12O (some centres unmarked) [CVie 108] — recorded % increase vs Control (SERCA2a Vmax) = 15

---
Entry C[C@]12CC[C@H](O)C[C@H]1CCC1C2CC[C@]2(C)[C@@H](/C=C/c3cc(CN)on3)CC[C@]12O (some centres unmarked) [CVie 110] — recorded % increase vs Control (SERCA2a Vmax) = 19
